experimental target: ferroportin (Homo sapiens, UniProt Q9NP59)
Sequence (Q9NP59 1-571): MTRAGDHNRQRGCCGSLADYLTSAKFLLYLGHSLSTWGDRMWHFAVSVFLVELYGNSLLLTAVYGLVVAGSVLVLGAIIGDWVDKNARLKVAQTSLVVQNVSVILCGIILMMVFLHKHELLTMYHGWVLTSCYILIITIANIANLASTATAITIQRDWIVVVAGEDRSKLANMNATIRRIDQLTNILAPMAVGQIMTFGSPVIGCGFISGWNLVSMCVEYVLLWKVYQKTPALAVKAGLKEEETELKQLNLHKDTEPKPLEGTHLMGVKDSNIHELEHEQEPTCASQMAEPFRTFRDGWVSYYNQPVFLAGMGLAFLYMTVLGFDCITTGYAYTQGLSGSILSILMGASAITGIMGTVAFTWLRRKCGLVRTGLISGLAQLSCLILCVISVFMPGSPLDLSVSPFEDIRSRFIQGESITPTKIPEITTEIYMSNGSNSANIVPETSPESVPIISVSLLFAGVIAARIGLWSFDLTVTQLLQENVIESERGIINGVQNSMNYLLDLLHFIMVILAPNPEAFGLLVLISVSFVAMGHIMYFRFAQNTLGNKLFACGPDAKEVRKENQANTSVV
method description: T47D cell-based ferroportin internalization assay in presence of 0.5% mouse serum albumin (MSA)
measurement context: T47D cells
pIC50: −log10 of the molar value.
Form field: pIC50 (one value per entry).

smiles str | pIC50
CCCCCCCCCCCCCCCC(=O)NCCCCCC(=O)NCCCC[C@H](NC(=O)C[C@H](Cc1ccccc1)NC(=O)[C@@H]1CCC=CCC[C@H](NC(=O)CC(C)C)C(=O)N[C@@H]([C@@H](C)O)C(=O)N[C@@H](Cc2c[nH]cn2)C(=O)N[C@@H](C(c2ccccc2)c2ccccc2)C(=O)N2CCC[C@H]2C(=O)N[C@@H](C)C(=O)N[C@@H]([C@@H](C)CC)C(=O)N1)C(=O)N(C)[C@H](CCCCN)C(N)=O | 7.00 to 8.00
CCCCCCCCCCCCCCCC(=O)NCCCCCC(=O)NCCCC[C@H](NC(=O)C[C@H](Cc1ccccc1)NC(=O)[C@H]1CCCC=CCC[C@H](NC(=O)CC(C)C)C(=O)N[C@@H]([C@@H](C)O)C(=O)N[C@@H](Cc2c[nH]cn2)C(=O)N[C@@H](C(c2ccccc2)c2ccccc2)C(=O)N2CCC[C@H]2C(=O)N[C@@H](C)C(=O)N[C@@H]([C@@H](C)CC)C(=O)N1)C(=O)N[C@H](CCCCN)C(N)=O | 7.00 to 8.00
CCCCCCCCCCCCCCCC(=O)NCCCCCC(=O)NCCCC[C@H](NC(=O)C[C@H](Cc1ccccc1)NC(=O)[C@@H](CCCCN)NC(=O)[C@@H]1CCC=CCC[C@H](NC(=O)[C@@H]2CCCN2C(=O)[C@@H](NC(=O)[C@H](Cc2c[nH]cn2)NC(=O)[C@@H](NC(=O)[C@H](CCC(=O)O)NC(=O)CC(C)C)[C@@H](C)O)C(c2ccccc2)c2ccccc2)C(=O)N1)C(=O)N[C@H](CCCCN)C(N)=O | 8.00 to 9.00
CCCCCCCCCCCCCCCC(=O)NCCCCCC(=O)NCCCC[C@H](NC(=O)C[C@H](Cc1ccccc1)NC(=O)[C@H]1CCC=CCC[C@@H](NC(=O)CC(C)C)C(=O)N[C@@H]([C@@H](C)O)C(=O)N[C@@H](Cc2c[nH]cn2)C(=O)N[C@@H](C(c2ccccc2)c2ccccc2)C(=O)N2CCC[C@H]2C(=O)N[C@@H](C)C(=O)N[C@@H]([C@@H](C)CC)C(=O)N1)C(=O)N[C@H](CCCCN)C(N)=O | 6.30 to 7.00
CCCCCCCCCCCCCCCC(=O)NCCCCCC(=O)NCCCC[C@H](NC(=O)C[C@H](Cc1ccccc1)NC(=O)[C@H]1CCCC=CCCC[C@H](NC(=O)CC(C)C)C(=O)N[C@@H]([C@@H](C)O)C(=O)N[C@@H](Cc2c[nH]cn2)C(=O)N[C@@H](C(c2ccccc2)c2ccccc2)C(=O)N2CCC[C@H]2C(=O)N[C@@H](C)C(=O)N[C@@H]([C@@H](C)CC)C(=O)N1)C(=O)N[C@H](CCCCN)C(N)=O | 8.00 to 9.00
CCCCCCCCCCCCCCCC(=O)NCCCCCC(=O)NCCCC[C@H](NC(=O)C[C@H](Cc1ccccc1)NC(=O)[C@H]1CCC=CCCC[C@H](NC(=O)CC(C)C)C(=O)N[C@@H]([C@@H](C)O)C(=O)N[C@@H](Cc2c[nH]cn2)C(=O)N[C@@H](C(c2ccccc2)c2ccccc2)C(=O)N2CCC[C@H]2C(=O)N[C@@H](C)C(=O)N[C@@H]([C@@H](C)CC)C(=O)N1)C(=O)N[C@H](CCCCN)C(N)=O | 6.30 to 7.00

Sourced from patent US20240209053A1
